Target: T1, Human LILRA4 on transiently transfected HEK293-6E cells (human, UniProt P59901 24-499)
T1 construct: whole, on cells; also called hLILRA4
T1 sequence (P59901 24-499): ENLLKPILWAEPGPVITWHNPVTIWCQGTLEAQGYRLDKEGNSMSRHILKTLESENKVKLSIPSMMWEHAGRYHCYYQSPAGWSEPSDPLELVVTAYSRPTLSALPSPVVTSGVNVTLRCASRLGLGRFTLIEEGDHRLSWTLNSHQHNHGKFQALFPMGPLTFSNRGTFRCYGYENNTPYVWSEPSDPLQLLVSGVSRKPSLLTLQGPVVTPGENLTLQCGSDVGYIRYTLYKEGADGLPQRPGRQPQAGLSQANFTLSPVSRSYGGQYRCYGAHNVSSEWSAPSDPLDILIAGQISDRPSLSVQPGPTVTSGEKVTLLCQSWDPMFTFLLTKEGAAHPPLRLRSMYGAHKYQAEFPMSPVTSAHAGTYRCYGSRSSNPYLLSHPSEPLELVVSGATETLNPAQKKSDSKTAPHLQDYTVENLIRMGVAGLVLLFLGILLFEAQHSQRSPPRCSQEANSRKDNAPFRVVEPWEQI
Test: flow cytometry, transiently transfected HEK293-6E cells
// reported BMAX [gMFI] for each item listed
Please report the result as a number followed by the unit.

Q: # BMAX [gMFI] lookup, item B2H1-35 (antibody, V domains shown, Humanized variant, human IgG1 / kappa) VH: QVQLVESGGRVVQPGTPLRLSCAASGFSLSTYAMSWVRQAPGKGLEWVAWIYNDGSTYYAAWAKGRFTISRDTSKNTLYLQTNSLKPDDTAVYYCAREGDYIGYFNIWGQGTLVTVSS VL: DVVMTQTPSSVSAALGGTVTIKCQASQSIGSNLAWYQLKPGQRPKLLIYAAATLASGGSSRFKGSGSGTDFTLTISSLEPADAATYYCQSYVSGSSDVAFGGGTEVVVK
A: 103 gMFI

Q: # BMAX [gMFI] lookup, item B2H1-55 (antibody, V domains shown, Humanized variant, human IgG1 / kappa; also called humanized variant B2H1-55; humanized LILRB2 antibody B2H1-55) VH: EVQLLESGGGLVQPGTSLTLSCAASGFSLSTYAMSWVRQAPGKGLEWIGWIYNDGSTYYAAWAKGRFTISKDTSKTTLYLQITSLRAEDTATYFCAREGDYIGYFNIWGQGTLVTVSS VL: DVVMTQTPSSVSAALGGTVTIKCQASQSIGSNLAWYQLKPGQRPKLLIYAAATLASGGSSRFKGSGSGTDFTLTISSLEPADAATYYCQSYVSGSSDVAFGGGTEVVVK
A: 112 gMFI

Q: Please report the recorded BMAX [gMFI] for B2H1-11 (antibody, V domains shown, Humanized variant, human IgG1 / kappa) VH: QVQLEESGGRVVQPGRSLRLSCAASGFSLSTYAMSWVRQAPGKGLEWIGWIYNDGSTYYAAWAKGRFTISKDTSKTTVFLQMNSLKPDDTATYFCAREGDYIGYFNIWGQGTLVTVSS VL: DIQMTQSPSSLSASVGDRVTITCQASQSIGSNLAWYQLKPGQRPKLLIYAAATLASGVPSRFKGSGSGTDFTLTISSLQSEDAATYYCQSYVSGSSDVAFGGGTEVVVK .
A: 108 gMFI

Now, please, on to the next binder.
Q: Please look up its BMAX [gMFI]: B2H1-52 (antibody, V domains shown, Humanized variant, human IgG1 / kappa) VH: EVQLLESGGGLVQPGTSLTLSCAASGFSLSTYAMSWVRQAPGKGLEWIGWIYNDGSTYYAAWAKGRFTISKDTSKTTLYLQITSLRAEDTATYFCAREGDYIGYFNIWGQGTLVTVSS VL: DVVMTQSPSSVSASLGDRVTITCQASQSIGSNLAWYQQKPGQAPKLLIYAAATLASGVPSRFKGSGSGTDFTLTITSLQPADFATYYCQSYVSGSSDVAFGGGTKVEIK
A: 106 gMFI
